Would you mind telling me the reported % Remaining of Initial, 120 min of each entry?
system: rat liver microsomes; assay: Metabolic stability in rat liver microsomes (RLM); settings: RLM; 120 min; Table 2, four test articles

Input: Fill in % Remaining of Initial, 120 min for record [2H]C([2H])(Cc1c[nH]c2ccccc12)N(C)C [DMT-d2]
Output: 21.5%

Input: Provide % Remaining of Initial, 120 min value for the following molecule: [2H]C([2H])(c1c[nH]c2ccccc12)C([2H])([2H])N(C)C [DMT-d4]
Output: 23.7%

Input: Give % Remaining of Initial, 120 min for CN(C)CCc1c[nH]c2ccccc12 [DMT, reference compound]
Output: 4.07%

Input: Quick one: give measured % Remaining of Initial, 120 min for [2H]C([2H])([2H])N(C([2H])([2H])[2H])C([2H])([2H])C([2H])([2H])c1c[nH]c2ccccc12 [DMT-d10]
Output: 29.4%

---

test system: rat liver microsomes; assay: Metabolic stability in rat liver microsomes (RLM); settings: RLM; 30 min; Table 2, four test articles
measuredQuantity: % Remaining of Initial, 30 min (%)
Lab book: enter the figure in %, no units written.

Input: # assay system rat liver microsomes: give % Remaining of Initial, 30 min of `[2H]C([2H])([2H])N(C([2H])([2H])[2H])C([2H])([2H])C([2H])([2H])c1c[nH]c2ccccc12`
Output: 50.9

Input: Determine reported % Remaining of Initial, 30 min for CN(C)CCc1c[nH]c2ccccc12 [DMT, reference compound] ; test system: rat liver microsomes.
Output: 33.2

Input: Look up and report measured % Remaining of Initial, 30 min (rat liver microsomes) for the following compound: `[2H]C([2H])(c1c[nH]c2ccccc12)C([2H])([2H])N(C)C`
Output: 46.3

Input: Please look at [2H]C([2H])(Cc1c[nH]c2ccccc12)N(C)C [DMT-d2] and tell me its recorded % Remaining of Initial, 30 min on rat liver microsomes.
Output: 43.3

---

target: hrMAO-A (Homo sapiens, UniProt P21397); construct: purchased XenoTech Lot #8213001; test: Metabolic stability in the presence of hrMAO-A; type: in vitro ADME; details: hrMAO-A; 20 min; Table 3, four test articles
measuredQuantity: % Remaining of Initial, 20 min (%)
Give the quantity in %, number only.

Input: Provide only the value of recorded % Remaining of Initial, 20 min for CN(C)CCc1c[nH]c2ccccc12 [DMT, reference compound]
Output: 64.8

Input: Return % Remaining of Initial, 20 min (reported value) for this compound: `[2H]C([2H])(c1c[nH]c2ccccc12)C([2H])([2H])N(C)C`
Output: 102

Input: Report measured % Remaining of Initial, 20 min; entry is [2H]C([2H])(Cc1c[nH]c2ccccc12)N(C)C [DMT-d2]
Output: 101

Input: Tell me its % Remaining of Initial, 20 min given `[2H]C([2H])([2H])N(C([2H])([2H])[2H])C([2H])([2H])C([2H])([2H])c1c[nH]c2ccccc12` as the entry.
Output: 103

---

Biological target: hrMAO-A (Homo sapiens)
Construct: purchased XenoTech Lot #8213001
Sequence (P21397 1-527): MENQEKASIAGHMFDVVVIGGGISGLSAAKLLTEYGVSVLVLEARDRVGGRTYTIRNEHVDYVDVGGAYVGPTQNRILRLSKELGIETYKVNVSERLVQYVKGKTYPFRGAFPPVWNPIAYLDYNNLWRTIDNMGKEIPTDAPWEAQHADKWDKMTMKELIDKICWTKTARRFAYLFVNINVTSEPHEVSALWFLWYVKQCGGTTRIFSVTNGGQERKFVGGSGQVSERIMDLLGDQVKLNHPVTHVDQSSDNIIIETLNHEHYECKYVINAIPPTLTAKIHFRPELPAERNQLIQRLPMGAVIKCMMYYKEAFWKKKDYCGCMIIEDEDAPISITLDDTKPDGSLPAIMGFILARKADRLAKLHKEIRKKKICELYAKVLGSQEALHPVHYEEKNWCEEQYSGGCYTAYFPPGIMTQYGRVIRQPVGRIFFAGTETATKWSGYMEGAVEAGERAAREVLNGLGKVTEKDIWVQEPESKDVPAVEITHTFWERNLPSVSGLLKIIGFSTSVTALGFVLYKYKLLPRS
Assay: Metabolic stability in the presence of hrMAO-A
Format: in vitro ADME
Details: hrMAO-A; Table 3, four test articles
measuredQuantity: Half-life

Input: State measured Half-life of the compound CN(C)CCc1c[nH]c2ccccc12 [DMT, reference compound] with hrMAO-A (Homo sapiens).
Output: 0.453 h

Input: // fetch Half-life; item: `[2H]C([2H])([2H])N(C([2H])([2H])[2H])C([2H])([2H])C([2H])([2H])c1c[nH]c2ccccc12` ; system: hrMAO-A (Homo sapiens)
Output: > 2 h

Input: Fill: Half-life (hrMAO-A (Homo sapiens)) for this compound `[2H]C([2H])(c1c[nH]c2ccccc12)C([2H])([2H])N(C)C`
Output: > 2 h

Input: # lookup: hrMAO-A (Homo sapiens) Half-life, key = [2H]C([2H])(Cc1c[nH]c2ccccc12)N(C)C [DMT-d2]
Output: > 2 h

---

biological target: hrMAO-A (Homo sapiens); construct: purchased XenoTech Lot #8213001; experiment: Metabolic stability in the presence of hrMAO-A; type: in vitro ADME; details: hrMAO-A; 10 min; Table 3, four test articles
measuredQuantity: % Remaining of Initial, 10 min (%)
Your answer should be a plain number; it is taken to be in %.

Input: Recall and state the measured % Remaining of Initial, 10 min for `[2H]C([2H])([2H])N(C([2H])([2H])[2H])C([2H])([2H])C([2H])([2H])c1c[nH]c2ccccc12` .
Output: 112

Input: In one line, give reported % Remaining of Initial, 10 min of the entry [2H]C([2H])(Cc1c[nH]c2ccccc12)N(C)C [DMT-d2] .
Output: 111

Input: Complete the entry with % Remaining of Initial, 10 min for CN(C)CCc1c[nH]c2ccccc12 [DMT, reference compound]
Output: 90.7

Input: Please list % Remaining of Initial, 10 min recorded for the compound `[2H]C([2H])(c1c[nH]c2ccccc12)C([2H])([2H])N(C)C`
Output: 111

---

target: hrMAO-A (Homo sapiens); construct: purchased XenoTech Lot #8213001; experiment: Metabolic stability in the presence of hrMAO-A; format: in vitro ADME; conditions: hrMAO-A; 120 min; Table 3, four test articles
What % Remaining of Initial, 120 min was measured for each of the following?
Reply with just the number (in %).

Input: Retrieve % Remaining of Initial, 120 min on hrMAO-A (Homo sapiens); query `[2H]C([2H])(c1c[nH]c2ccccc12)C([2H])([2H])N(C)C`
Output: 61.4

Input: Tell me its % Remaining of Initial, 120 min on hrMAO-A (Homo sapiens): CN(C)CCc1c[nH]c2ccccc12 [DMT, reference compound]
Output: 3.95

Input: # assay system hrMAO-A (Homo sapiens): give % Remaining of Initial, 120 min of `[2H]C([2H])([2H])N(C([2H])([2H])[2H])C([2H])([2H])C([2H])([2H])c1c[nH]c2ccccc12`
Output: 68.6

Input: Report measured % Remaining of Initial, 120 min on hrMAO-A (Homo sapiens); entry: [2H]C([2H])(Cc1c[nH]c2ccccc12)N(C)C [DMT-d2]
Output: 59.1

---

biological target: hrMAO-A (Homo sapiens, UniProt P21397); construct: purchased XenoTech Lot #8213001; assay: Metabolic stability in the presence of hrMAO-A; type: in vitro ADME; details: hrMAO-A; 5 min; Table 3, four test articles
measuredQuantity: % Remaining of Initial, 5 min
Answer with the figure and its unit, nothing else.

Input: Check the records and state % Remaining of Initial, 5 min for [2H]C([2H])([2H])N(C([2H])([2H])[2H])C([2H])([2H])C([2H])([2H])c1c[nH]c2ccccc12 [DMT-d10]
Output: 107%

Input: Please indicate % Remaining of Initial, 5 min recorded for [2H]C([2H])(c1c[nH]c2ccccc12)C([2H])([2H])N(C)C [DMT-d4]
Output: 106%

Input: Supply recorded % Remaining of Initial, 5 min for [2H]C([2H])(Cc1c[nH]c2ccccc12)N(C)C [DMT-d2] here.
Output: 106%

Input: Return reported % Remaining of Initial, 5 min. Input compound: CN(C)CCc1c[nH]c2ccccc12 [DMT, reference compound]
Output: 96.3%

---

Target: hrMAO-A (Homo sapiens, UniProt P21397)
Construct: purchased XenoTech Lot #8213001
Sequence (P21397 1-527): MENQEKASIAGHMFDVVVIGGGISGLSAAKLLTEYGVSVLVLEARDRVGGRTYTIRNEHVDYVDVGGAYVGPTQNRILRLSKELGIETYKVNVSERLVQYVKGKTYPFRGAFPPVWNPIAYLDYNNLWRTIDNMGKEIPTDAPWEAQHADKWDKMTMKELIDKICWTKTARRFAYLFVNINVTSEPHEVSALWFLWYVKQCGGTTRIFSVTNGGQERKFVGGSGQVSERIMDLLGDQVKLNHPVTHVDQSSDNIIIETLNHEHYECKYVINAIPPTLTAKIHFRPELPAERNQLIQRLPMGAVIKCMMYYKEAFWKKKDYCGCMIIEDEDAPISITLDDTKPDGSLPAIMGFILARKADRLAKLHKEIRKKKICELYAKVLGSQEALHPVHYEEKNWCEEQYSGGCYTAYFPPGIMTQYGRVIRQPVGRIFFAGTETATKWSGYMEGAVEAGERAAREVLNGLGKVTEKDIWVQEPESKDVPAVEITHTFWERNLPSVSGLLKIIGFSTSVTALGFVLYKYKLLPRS
Assay: Metabolic stability in the presence of hrMAO-A
Type: in vitro ADME
Conditions: hrMAO-A; 60 min; Table 3, four test articles
measuredQuantity: % Remaining of Initial, 60 min

Input: Identify measured % Remaining of Initial, 60 min corresponding to [2H]C([2H])(c1c[nH]c2ccccc12)C([2H])([2H])N(C)C [DMT-d4]
Output: 77.4%

Input: Let me know recorded % Remaining of Initial, 60 min for CN(C)CCc1c[nH]c2ccccc12 [DMT, reference compound] , thanks.
Output: 18.1%

Input: Fill in % Remaining of Initial, 60 min for record [2H]C([2H])([2H])N(C([2H])([2H])[2H])C([2H])([2H])C([2H])([2H])c1c[nH]c2ccccc12 [DMT-d10]
Output: 82.2%

Input: Retrieve % Remaining of Initial, 60 min measured for [2H]C([2H])(Cc1c[nH]c2ccccc12)N(C)C [DMT-d2] and print it.
Output: 76.0%
